assay: small-molecule binders of probe aLefty1, primary screen, biochemical, small-molecule microarray, 635/667 nm fluorescence (AID 1153); settings: higher = more signal;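 further: score merges spot fluorescence with signal-to-noise ratio from the scanned slide images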
metric_name: composite z-score
// response body must contain only the number

INPUT: Need composite z-score, item C=CCC(OC(C)=O)[C@@H]1[C@@H](N(Cc2cc3ccccc3o2)C(=O)c2ccc(-c3ccccc3)cc2)c2cc(OCCCO)ccc2N1C(=O)c1ccc2ccccc2c1 (stereo partly drawn)
OUTPUT: 0.187

INPUT: Need composite z-score, item N#Cc1ccc(C(O)C2C=CC3C(=O)N(c4ccccc4)C(=O)C3N2Nc2ccccc2)cc1 (stereo not drawn)
OUTPUT: 0.135

INPUT: Need composite z-score, item CC1=C[C@@]2(CO)C(=O)[C@]3(CO3)[C@@H]1[C@H]1[C@]2(C)C=C(CO)C(=O)[C@]12CO2
OUTPUT: -0.148

INPUT: Need composite z-score, item C=CCC(OC(C)=O)[C@@H]1[C@@H](N(Cc2ccc(-c3ccccc3)cc2)C(=O)Cc2ccc(F)cc2)c2cc(OCCCO)ccc2N1C(=O)Cc1ccc(OC)cc1 (stereo partly drawn)
OUTPUT: 0.106

INPUT: Need composite z-score, item COC1OC[C@]2(C)[C@H]3C4=C(CN2C(=O)OC(C)(C)C)[C@H](C)C(CO)C(CO)C4CC[C@@H]13 (stereo partly drawn)
OUTPUT: 1.13
